Assay: CMV-Luciferase Counterscreen for Inhibitors of ATXN expression; note: nearly all actives have a fitted effect of over 55% in size
Details: HEK-293 CMV-luciferase reporter, luminescence, 24 h; series mostly up to 57.5 µM
Screen size: about 2,100 compounds; about 670 (32%) were called active. Not shown: some 50% with an inconclusive outcome. Calls come from the whole dose curve; as a rule, active = well fitted inhibition curve with a large enough effect; inconclusive = small, poorly fitted or top-dose-only effect; inactive = no such curve, though single readings can be large or run the other way. Some of the results follow.
Give your call using only these classes: Yes for active, No for inactive

Dear colleague, could you share the recorded outcome for O=[N+]([O-])c1ccc(NC(c2ccccc2)c2ccc3cccnc3c2O)cc1 (stereo unspecified) when you have a moment?
Yes

Dear colleague, could you share the recorded outcome for CCN1CCS/C1=C\C=C\C1=[N+](CC)CCS1 when you have a moment?
Yes

Dear colleague, could you share the recorded outcome for CN1CCN(c2nc(-c3ccccn3)nc3ccccc23)CC1 when you have a moment?
No

Dear colleague, could you share the recorded outcome for CCCN(CCC)S(=O)(=O)c1ccc(C(=O)Nc2nnc(-c3cc(OC)cc(OC)c3)o2)cc1 when you have a moment?
Yes

Dear colleague, could you share the recorded outcome for Cn1c(SCC(=O)N/N=C/c2ccc([N+](=O)[O-])s2)nnc1-c1ccccc1 when you have a moment?
Yes

Dear colleague, could you share the recorded outcome for O=S(=O)(Cc1cc(NCc2ccccc2)nc(-c2ccccn2)n1)c1ccccc1 when you have a moment?
No

Dear colleague, could you share the recorded outcome for CN(c1ccccc1)S(=O)(=O)c1ccc(C(=O)Nc2nnc(-c3ccc(F)cc3)o2)cc1 when you have a moment?
Yes

Dear colleague, could you share the recorded outcome for O=C(NCCc1csc(-c2cccnc2)n1)c1cccc(Cl)c1 when you have a moment?
No

Dear colleague, could you share the recorded outcome for C[C@@H]1CN([C@H](C)CO)S(=O)(=O)c2ccc(-c3ccc(C#N)cc3)cc2O[C@H]1CN(C)C(=O)Nc1cc(F)ccc1F when you have a moment?
Yes

Dear colleague, could you share the recorded outcome for Cc1cc(Cl)c(C(=O)Nc2cccc(C(F)(F)F)c2)c(C)n1 when you have a moment?
Yes

Dear colleague, could you share the recorded outcome for CCCCn1c(SCC(=O)Nc2cc(NC(=O)c3ccco3)ccc2C)nc2ccccc2c1=O when you have a moment?
No

Dear colleague, could you share the recorded outcome for CC1(C(=O)NCc2ccccc2Br)CCN1C(=O)Cc1ccc(-c2ccccc2)cc1 (stereo unspecified) when you have a moment?
Yes

Dear colleague, could you share the recorded outcome for CCCC(=O)NC(c1ccc(C(C)C)cc1)c1ccc2cccnc2c1O (stereo unspecified) when you have a moment?
Yes

Dear colleague, could you share the recorded outcome for CC(C)(C)c1cc(C(=O)NNc2cc(C(F)(F)F)ccc2Cl)n(Cc2ccccc2)n1 when you have a moment?
No

Dear colleague, could you share the recorded outcome for COCCNC(=O)c1cccc(Nc2nc(-c3ccccc3)c3cc(Cl)ccc3n2)c1 when you have a moment?
Yes

Dear colleague, could you share the recorded outcome for Cc1nc2ccc(NC(=O)c3ccc(S(=O)(=O)N(C)c4ccccc4)cc3)cc2s1 when you have a moment?
Yes

Dear colleague, could you share the recorded outcome for Cc1nc2cc(NC(=O)CSc3nc4c(C)cccc4cc3C#N)ccc2s1 when you have a moment?
No

Dear colleague, could you share the recorded outcome for Oc1c(C(Nc2cccc(C(F)(F)F)c2)c2ccncc2)ccc2cccnc12 (stereo unspecified) when you have a moment?
Yes

Dear colleague, could you share the recorded outcome for Cn1c(SCC(=O)N/N=C/c2ccc([N+](=O)[O-])s2)nnc1-c1ccc(Cl)cc1 when you have a moment?
Yes

Dear colleague, could you share the recorded outcome for NC(=O)N/N=C/c1c(O)ccc2oc3c(c12)CCCC3 when you have a moment?
No

Dear colleague, could you share the recorded outcome for Cc1ccc(Sc2nnc(Cc3ccccc3)c3ccccc23)cc1 when you have a moment?
No
